Let's look at some binders and their measured IL-2 luciferase reporter, Normalized Fold Change from CD155-ECD, proteins at 50 nM.
Biological target: T1, TIGIT (human)
T1 chain: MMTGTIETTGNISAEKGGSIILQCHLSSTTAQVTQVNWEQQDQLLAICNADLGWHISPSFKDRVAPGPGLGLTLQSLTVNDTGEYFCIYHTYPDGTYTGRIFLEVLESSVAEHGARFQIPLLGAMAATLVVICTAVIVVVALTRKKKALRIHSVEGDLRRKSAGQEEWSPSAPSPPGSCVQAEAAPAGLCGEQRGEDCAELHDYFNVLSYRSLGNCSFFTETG
Test: cell-based or functional assay
// units = fold; emit number, no label

Enquiry: Give its IL-2 luciferase reporter, Normalized Fold Change from CD155-ECD, proteins at 50 nM value. Item: variant CD155 IgV-Fc D8G, P18S, M36I, V38A, H49Q, A76E, F91S, L104M, T107A, R113W (Fc fusion) WPPPGTGGVVVQAPTQVSGFLGDSVTLPCYLQVPNIEATHVSQLTWARQGESGSMAVFHQTQGPSYSESKRLEFVEARLGAELRNASLRMSGLRVEDEGNYTCMFVAFPQGSWSVDIWLRVLGSGGGGSEPKSSDKTHTCPPCPAPEAEGAPSVFLFPPKPKDTLMISRTPEVTCVVVDVSHEDPEVKFNWYVDGVEVHNAKTKPREEQYNSTYRVVSVLTVLHQDWLNGKEYKCKVSNKALPAPIEKTISKAKGQPREPQVYTLPPSRDELTKNQVSLTCLVKGFYPSDIAVEWESNGQPENNYKTTPPVLDSDGSFFLYSKLTVDKSRWQQGNVFSCSVMHEALHNHYTQKSLSLSPGK
Return: 4

Enquiry: Can you look up the measured IL-2 luciferase reporter, Normalized Fold Change from CD155-ECD, proteins at 50 nM of variant CD155 IgV-Fc T15I, P18T, L79P, F91S, L104M, G111R (Fc fusion) WPPPGTGDVVVQAPIQVTGFLGDSVTLPCYLQVPNMEVTHVSQLTWARHGESGSMAVFHQTQGPSYSESKRLEFVAARPGAELRNASLRMSGLRVEDEGNYTCMFVTFPQRSRSVDIWLRVLGSGGGGSEPKSSDKTHTCPPCPAPEAEGAPSVFLFPPKPKDTLMISRTPEVTCVVVDVSHEDPEVKFNWYVDGVEVHNAKTKPREEQYNSTYRVVSVLTVLHQDWLNGKEYKCKVSNKALPAPIEKTISKAKGQPREPQVYTLPPSRDELTKNQVSLTCLVKGFYPSDIAVEWESNGQPENNYKTTPPVLDSDGSFFLYSKLTVDKSRWQQGNVFSCSVMHEALHNHYTQKSLSLSPGK for me?
Return: 0.4

Enquiry: Which IL-2 luciferase reporter, Normalized Fold Change from CD155-ECD, proteins at 50 nM is reported for this binder? variant CD155 IgV-Fc P18S, S52P, S65A, S67V, L79P, F91S, L104M, T107S, R113W (Fc fusion) WPPPGTGDVVVQAPTQVSGFLGDSVTLPCYLQVPNMEVTHVSQLTWARHGEPGSMAVFHQTQGPAYVESKRLEFVAARPGAELRNASLRMSGLRVEDEGNYTCMFVSFPQGSWSVDIWLRVLGSGGGGSEPKSSDKTHTCPPCPAPEAEGAPSVFLFPPKPKDTLMISRTPEVTCVVVDVSHEDPEVKFNWYVDGVEVHNAKTKPREEQYNSTYRVVSVLTVLHQDWLNGKEYKCKVSNKALPAPIEKTISKAKGQPREPQVYTLPPSRDELTKNQVSLTCLVKGFYPSDIAVEWESNGQPENNYKTTPPVLDSDGSFFLYSKLTVDKSRWQQGNVFSCSVMHEALHNHYTQKSLSLSPGK
Return: -0.1

Enquiry: Which IL-2 luciferase reporter, Normalized Fold Change from CD155-ECD, proteins at 50 nM is listed for variant CD155 IgV-Fc V11A, P18S, L79P, F91S, L104M, G111R (Fc fusion) WPPPGTGDVVAQAPTQVSGFLGDSVTLPCYLQVPNMEVTHVSQLTWARHGESGSMAVFHQTQGPSYSESKRLEFVAARPGAELRNASLRMSGLRVEDEGNYTCMFVTFPQRSRSVDIWLRVLGSGGGGSEPKSSDKTHTCPPCPAPEAEGAPSVFLFPPKPKDTLMISRTPEVTCVVVDVSHEDPEVKFNWYVDGVEVHNAKTKPREEQYNSTYRVVSVLTVLHQDWLNGKEYKCKVSNKALPAPIEKTISKAKGQPREPQVYTLPPSRDELTKNQVSLTCLVKGFYPSDIAVEWESNGQPENNYKTTPPVLDSDGSFFLYSKLTVDKSRWQQGNVFSCSVMHEALHNHYTQKSLSLSPGK ?
Return: 0.4
